- systemName: DNA polymerase (UniProt P10443)
- Sequence (P10443 whole entry): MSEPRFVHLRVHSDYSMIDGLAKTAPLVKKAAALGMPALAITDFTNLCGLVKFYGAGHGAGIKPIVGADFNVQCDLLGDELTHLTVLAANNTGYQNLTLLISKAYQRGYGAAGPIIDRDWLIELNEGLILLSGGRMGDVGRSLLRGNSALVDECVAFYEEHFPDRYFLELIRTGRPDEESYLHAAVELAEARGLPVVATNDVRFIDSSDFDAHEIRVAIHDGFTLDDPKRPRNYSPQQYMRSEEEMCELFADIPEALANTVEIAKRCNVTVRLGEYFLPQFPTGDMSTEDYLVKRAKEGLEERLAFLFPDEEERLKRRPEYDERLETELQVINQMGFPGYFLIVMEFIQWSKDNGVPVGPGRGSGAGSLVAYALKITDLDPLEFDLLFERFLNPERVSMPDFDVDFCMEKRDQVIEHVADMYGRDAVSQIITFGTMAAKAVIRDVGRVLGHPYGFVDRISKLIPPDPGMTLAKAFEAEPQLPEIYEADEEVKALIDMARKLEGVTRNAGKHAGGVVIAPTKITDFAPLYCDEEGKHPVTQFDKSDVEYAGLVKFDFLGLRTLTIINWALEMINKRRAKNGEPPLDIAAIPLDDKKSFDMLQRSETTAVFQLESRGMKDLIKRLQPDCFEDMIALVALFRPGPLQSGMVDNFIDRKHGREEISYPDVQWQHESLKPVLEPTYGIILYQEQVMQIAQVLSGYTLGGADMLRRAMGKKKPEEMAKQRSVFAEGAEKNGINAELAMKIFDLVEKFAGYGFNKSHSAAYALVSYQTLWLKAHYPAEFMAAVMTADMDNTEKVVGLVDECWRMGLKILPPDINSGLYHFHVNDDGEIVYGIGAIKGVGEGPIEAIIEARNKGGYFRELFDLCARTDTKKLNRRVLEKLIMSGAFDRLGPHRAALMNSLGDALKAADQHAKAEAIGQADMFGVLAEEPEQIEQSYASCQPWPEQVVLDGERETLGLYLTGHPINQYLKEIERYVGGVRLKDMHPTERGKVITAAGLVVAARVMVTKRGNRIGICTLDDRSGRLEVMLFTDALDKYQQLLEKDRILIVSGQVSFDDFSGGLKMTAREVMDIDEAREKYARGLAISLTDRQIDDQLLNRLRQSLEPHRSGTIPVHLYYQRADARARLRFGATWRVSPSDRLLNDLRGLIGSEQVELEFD
- protocolDetails: relative enzymatic activity vs untreated control (fraction); higher = less inhibition
- recordedConditions: 100 µM; incubation time: 2 h at 37 C
Would you mind telling me the reported relative enzymatic activity of each entry?
Numbers only.

[[record]]
molecule = "CC[C@@H]1OC(=O)[C@H](C)[C@@H](O[C@H]2C[C@@](C)(OC)[C@@H](O)[C@H](C)O2)[C@H](C)[C@@H](O[C@@H]2O[C@H](C)C[C@H](N(C)C)[C@H]2O)[C@](C)(O)C[C@@H](C)/C(=N\\OCOCCOC)[C@H](C)[C@@H](O)[C@]1(C)O"
systemname = "DNA polymerase (UniProt P10443)"
testreadout = "relative enzymatic activity"
valuereported = 0.48

[[record]]
molecule = "CC(C)(O/N=C(\\C(=O)N[C@@H]1C(=O)N2C(C(=O)O)=C(C[N+]3(CCNC(=O)c4ccc(O)c(O)c4Cl)CCCC3)CS[C@H]12)c1csc(N)n1)C(=O)O"
systemname = "DNA polymerase (UniProt P10443)"
testreadout = "relative enzymatic activity"
valuereported = 1.05

[[record]]
molecule = "Cc1ccc(S(=O)(=O)O)cc1.NC1CCN(c2nc3c(cc2F)c(=O)c(C(=O)O)cn3-c2ccc(F)cc2F)C1.O (stereo not given)"
systemname = "DNA polymerase (UniProt P10443)"
testreadout = "relative enzymatic activity"
valuereported = 1.15

[[record]]
molecule = "COc1ccc(Cc2cnc(N)nc2N)cc1OC"
systemname = "DNA polymerase (UniProt P10443)"
testreadout = "relative enzymatic activity"
valuereported = 1.21

[[record]]
molecule = "CN(C)c1ccc(O)c2c1C[C@H]1C[C@H]3[C@H](N(C)C)C(=O)[C@@H](C(N)=O)C(=O)[C@@]3(O)C(=O)[C@H]1C2=O"
systemname = "DNA polymerase (UniProt P10443)"
testreadout = "relative enzymatic activity"
valuereported = 0.973


Batch lookup, relative enzymatic activity per entry.
1. NCc1ccccc1CC(=O)NC1C(=O)N2C(C(=O)O)=C(CSc3nnnn3CC(=O)O)CSC12 (stereo not given)
2. NC(=O)N/N=C/c1ccc([N+](=O)[O-])o1
3. NC(C(=O)NC1C(=O)N2C(C(=O)O)=C(Cl)CSC12)c1ccccc1 (stereo not given)
4. CC[C@H]1OC(=O)C[C@@H](O)[C@H](C)[C@@H](O[C@@H]2O[C@H](C)C[C@H](N(C)C)[C@H]2O)[C@@H](CC=O)C[C@@H](C)C(=O)/C=C/[C@]2(C)O[C@H]2[C@@H]1C
5. CN[C@H]1CN(c2ccc3c(=O)c(C(=O)O)cn(-c4nccs4)c3n2)C[C@@H]1OC
6. O=c1[nH]c(=O)n([C@@H]2C[C@@H](O)[C@@H](CO)O2)cc1F
7. NCCCC[C@H](NC(=O)[C@@H](NC(=O)[C@H](Cc1c[nH]c2ccccc12)NC(=O)[C@H](CCCCN)NC(=O)[C@H](CCCCN)NC(=O)[C@H](Cc1c[nH]c2ccccc12)NC(=O)[C@H](Cc1c[nH]c2ccccc12)NC(=O)[C@H](CCCCN)NC(=O)[C@@H](N)CCCCN)C(c1ccccc1)c1ccccc1)C(N)=O

1. 1.38
2. 1.04
3. 1.38
4. 1.17
5. 0.641
6. 0.708
7. 0.0842

====

- systemName: DNA ligase (UniProt B1XA82)
- Sequence (B1XA82 whole entry): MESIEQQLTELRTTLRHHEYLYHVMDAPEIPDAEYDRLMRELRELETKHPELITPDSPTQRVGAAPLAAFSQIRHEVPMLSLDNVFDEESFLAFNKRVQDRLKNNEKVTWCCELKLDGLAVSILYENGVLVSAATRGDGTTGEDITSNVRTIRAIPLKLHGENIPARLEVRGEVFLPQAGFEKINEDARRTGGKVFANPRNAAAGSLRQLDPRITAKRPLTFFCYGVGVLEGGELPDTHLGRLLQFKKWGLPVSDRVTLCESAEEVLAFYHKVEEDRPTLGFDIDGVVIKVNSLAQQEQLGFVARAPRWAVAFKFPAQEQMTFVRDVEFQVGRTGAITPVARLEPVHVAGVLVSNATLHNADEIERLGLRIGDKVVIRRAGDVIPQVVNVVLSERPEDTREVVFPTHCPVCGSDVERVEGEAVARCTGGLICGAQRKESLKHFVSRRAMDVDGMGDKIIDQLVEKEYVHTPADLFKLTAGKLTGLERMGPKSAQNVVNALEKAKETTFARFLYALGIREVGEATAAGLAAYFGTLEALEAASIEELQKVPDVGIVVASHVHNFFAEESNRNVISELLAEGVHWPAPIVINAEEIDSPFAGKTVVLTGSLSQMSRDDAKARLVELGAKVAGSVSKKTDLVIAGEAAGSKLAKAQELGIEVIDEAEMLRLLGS
- protocolDetails: relative enzymatic activity vs untreated control (fraction); higher = less inhibition
- recordedConditions: 100 µM; incubation time: 2 h at 37 C
Provide the recorded relative enzymatic activity for the entries that follow.
Give bare numbers.

Take a look at these entries with their results.
[[record]]
compound = "CC1CCC2(C)C(C=O)=CCCC2C1(C)CC1OC(O)C(=O)C12CO2 (centres undefined)"
systemname = "DNA ligase (UniProt B1XA82)"
valuereported = 1.12

[[record]]
compound = "N[C@@H]1CN(c2c(F)cc3c(=O)c(C(=O)O)cn([C@@H]4C[C@@H]4F)c3c2Cl)CC12CC2"
systemname = "DNA ligase (UniProt B1XA82)"
valuereported = 0.852

[[record]]
compound = "CC[C@H]1OC(=O)C[C@@H](O)[C@H](C)[C@@H](O[C@@H]2O[C@H](C)C[C@H](N(C)C)[C@H]2O)[C@@H](CC=O)C[C@@H](C)C(=O)/C=C/[C@]2(C)O[C@H]2[C@@H]1C"
systemname = "DNA ligase (UniProt B1XA82)"
valuereported = 0.912

[[record]]
compound = "CCn1cc(C(=O)O)c(=O)c2cc(F)c(N3CCNCC3)nc21"
systemname = "DNA ligase (UniProt B1XA82)"
valuereported = 1.03


For every record below, what is its relative enzymatic activity?
1. NCc1ccccc1CC(=O)NC1C(=O)N2C(C(=O)O)=C(CSc3nnnn3CC(=O)O)CSC12 (centres undefined)
2. Cn1cc(-c2[nH]c3cc(NC(=O)[C@H](N)C4CCCCC4)cc4c3c2C=NNC4=O)cn1
3. Oc1c(Cl)cc(Cl)c2cccnc12
4. CCn1cc(C(=O)O)c(=O)c2cc(F)c(N3CCNCC3)cc21

1.19
0.703
1.11
0.906

Which relative enzymatic activity is reported for this compound? CN(C)[C@@H]1C(=O)[C@@H](C(N)=O)C(=O)[C@@]2(O)C(=O)[C@H]3C(=O)c4c(O)ccc(Cl)c4[C@@H](O)[C@H]3C[C@@H]12
0.858

====

- systemName: MurC (UniProt C4ZRI6)
- Sequence (C4ZRI6 whole entry, looked up): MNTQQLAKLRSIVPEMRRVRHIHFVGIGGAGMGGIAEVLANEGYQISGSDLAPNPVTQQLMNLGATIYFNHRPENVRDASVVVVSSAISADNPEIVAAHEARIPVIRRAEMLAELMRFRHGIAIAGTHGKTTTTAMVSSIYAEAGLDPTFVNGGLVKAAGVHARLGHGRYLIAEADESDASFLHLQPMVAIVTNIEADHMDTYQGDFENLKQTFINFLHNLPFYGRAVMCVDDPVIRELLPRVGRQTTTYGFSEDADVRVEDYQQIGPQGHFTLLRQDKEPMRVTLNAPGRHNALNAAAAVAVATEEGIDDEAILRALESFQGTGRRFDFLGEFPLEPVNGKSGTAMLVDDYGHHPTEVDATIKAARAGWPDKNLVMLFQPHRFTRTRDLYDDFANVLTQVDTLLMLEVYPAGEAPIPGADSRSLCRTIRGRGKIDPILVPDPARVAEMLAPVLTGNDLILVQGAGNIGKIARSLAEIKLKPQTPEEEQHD
- protocolDetails: relative enzymatic activity vs untreated control (fraction); higher = less inhibition
- recordedConditions: 100 µM; incubation time: 2 h at 37 C
Assign relative enzymatic activity to each entry below.
One number for each entry.

[[record]]
compound = "CO[C@@]12[C@@H]3N[C@@H]3CN1C1=C(C(=O)C(N)=C(C)C1=O)[C@@H]2COC(N)=O"
systemname = "MurC (UniProt C4ZRI6)"
valuereported = 1.08

[[record]]
compound = "COC1(NC(=O)CSCC#N)C(=O)N2C(C(=O)[O-])=C(CSc3nnnn3C)CSC21.[Na+] (centres undefined)"
systemname = "MurC (UniProt C4ZRI6)"
valuereported = 1.59

[[record]]
compound = "CC[C@H]1OC(=O)[C@H](C)[C@@H](O[C@H]2C[C@@](C)(OC)[C@@H](O)[C@H](C)O2)[C@H](C)[C@@H](O[C@@H]2O[C@H](C)C[C@H](N(C)C)[C@H]2O)[C@](C)(O)C[C@@H](C)C(=O)[C@H](C)[C@@H](O)[C@]1(C)O"
systemname = "MurC (UniProt C4ZRI6)"
valuereported = 0.959


Would you kindly look at the next entry?
Quick one: relative enzymatic activity of COC1(NC(=O)C(C(=O)[O-])c2ccc(O)cc2)C(=O)N2C(C(=O)[O-])=C(CSc3nnnn3C)COC21.[Na+].[Na+] (centres undefined) ?
1.03

====

Answer each item with its documented relative enzymatic activity.
- systemName: MurC (UniProt C4ZRI6)
- protocolDetails: relative enzymatic activity vs untreated control (fraction); higher = less inhibition
- recordedConditions: 100 µM; incubation time: 2 h at 37 C
Answers are plain numbers.

Example entries and their recorded answers appear below.
[[record]]
smilestext = "COc1cc(Cc2cnc(N)nc2N)cc(OC)c1OC"
testreadout = "relative enzymatic activity"
valuereported = 1.03

[[record]]
smilestext = "CCOC(=O)CCC(=O)O[C@H]1[C@H](O[C@@H]2[C@@H](C)[C@H](O[C@H]3C[C@@](C)(OC)[C@@H](O)[C@H](C)O3)[C@@H](C)C(=O)O[C@H](CC)[C@@](C)(O)[C@H](O)[C@@H](C)C(=O)[C@H](C)C[C@@]2(C)O)O[C@H](C)C[C@@H]1N(C)C"
testreadout = "relative enzymatic activity"
valuereported = 1.05


Okay, next one:
Quick check: relative enzymatic activity of CCn1cc(C(=O)O)c(=O)c2cc(F)c(N3CCNCC3)cc21 ?
1

====

- systemName: Guanlyate kinase (UniProt Q0TBG1)
- Sequence (Q0TBG1 whole entry): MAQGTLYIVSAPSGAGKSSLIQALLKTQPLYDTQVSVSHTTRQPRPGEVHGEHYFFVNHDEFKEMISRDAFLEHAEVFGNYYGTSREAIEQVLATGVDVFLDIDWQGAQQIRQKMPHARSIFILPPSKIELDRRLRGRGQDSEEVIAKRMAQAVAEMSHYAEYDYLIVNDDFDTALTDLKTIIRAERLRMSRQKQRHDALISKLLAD
- protocolDetails: relative enzymatic activity vs untreated control (fraction); higher = less inhibition
- recordedConditions: 100 µM; incubation time: 2 h at 37 C
testReadout: relative enzymatic activity
Numbers only.

[[record]]
compound = "CC(C)(ON=C(C(=O)NC1C(=O)N2C(C(=O)[O-])=C(C[n+]3ccccc3)CSC12)c1csc(N)n1)C(=O)O (stereo not given)"
valuereported = 0.876

[[record]]
compound = "O=C(O)c1cn(C2CC2)c2cc(N3CCC(O)(COc4ccc(N5C[C@H](CO)OC5=O)cc4F)CC3)c(F)cc2c1=O"
valuereported = 0.905

[[record]]
compound = "CN[C@@H]1[C@H](O[C@H]2[C@H](O[C@@H]3[C@@H](O)[C@H](O)[C@@H](NC(=N)N)[C@H](O)[C@H]3NC(=N)N)O[C@@H](C)[C@]2(O)CO)O[C@@H](CO)[C@H](O)[C@H]1O.CN[C@@H]1[C@H](O[C@H]2[C@H](O[C@@H]3[C@@H](O)[C@H](O)[C@@H](NC(=N)N)[C@H](O)[C@H]3NC(=N)N)O[C@@H](C)[C@]2(O)CO)O[C@@H](CO)[C@H](O)[C@H]1O"
valuereported = 0.983

[[record]]
compound = "CC1COc2c(C3(N)CC3)c(F)cc3c(=O)c(C(=O)O)cn1c23.CS(=O)(=O)O (stereo not given)"
valuereported = 1.02

[[record]]
compound = "CCC=C(C(=O)NC1C(=O)N2C(C(=O)OCOC(=O)C(C)(C)C)=C(COC(N)=O)CSC12)c1csc(N)n1.Cl (stereo not given)"
valuereported = 1.02


Please give relative enzymatic activity for each item listed below.
1. CCC(C)CCCCC(=O)NC(CCN)C(=O)NC(C(=O)NC(CCN)C(=O)NC1CCNC(=O)C(C(C)O)NC(=O)C(CCN)NC(=O)C(CCN)NC(=O)C(CC(C)C)NC(=O)C(Cc2ccccc2)NC(=O)C(CCN)NC1=O)C(C)O.O=S(=O)(O)O (stereo not given)
2. NCCONC(=O)[C@@H]1CC[C@@H]2CN1C(=O)N2OS(=O)(=O)O
3. CN1CCN(c2c(F)cc3c(=O)c(C(=O)O)cn4c3c2SCC4)CC1
4. O=C1OCCN1N=Cc1ccc([N+](=O)[O-])o1
5. Cl.NC1CCN(c2c(F)cc3c(=O)c(C(=O)O)cn(C4CC4)c3c2Cl)C1 (stereo not given)

[0.973, 1.01, 0.926, 1.01, 0.92]
